- Tested on: acetone-pulverized rat small intestine enzyme
- experimental-details: Degradation by acetone-pulverized rat small intestine enzyme
- Type: biochemical
- reported-conditions: pH6.0, 37° C., 18 hours
property-measured: Glucose in degradation product by acetone-powdered rat small intestine enzyme (%)
Field: numeric (%). Do not append units.

(Q) Item under review: OC[C@H]1O[C@H](O[C@H]2O[C@H](CO)[C@@H](O[C@H]3O[C@H](CO)[C@@H](O[C@H]4O[C@H](CO)[C@@H](O)[C@H](O)[C@H]4O)[C@H](O)[C@H]3O)[C@H](O)[C@H]2O)[C@H](O)[C@@H](O)[C@@H]1O [PII, alpha-maltosyl trehalose] . Reported Glucose in degradation product by acetone-powdered rat small intestine enzyme?
(A) 52.5

(Q) Item under review: OC[C@H]1O[C@H](O[C@H]2O[C@H](CO)[C@@H](O[C@H]3O[C@H](CO)[C@@H](O[C@H]4O[C@H](CO)[C@@H](O[C@H]5O[C@H](CO)[C@@H](O[C@H]6O[C@H](CO)[C@@H](O)[C@H](O)[C@H]6O)[C@H](O)[C@H]5O)[C@H](O)[C@H]4O)[C@H](O)[C@H]3O)[C@H](O)[C@H]2O)[C@H](O)[C@@H](O)[C@@H]1O [PIV, alpha-maltotetraosyl trehalose] . Reported Glucose in degradation product by acetone-powdered rat small intestine enzyme?
(A) 68.8

(Q) Item under review: OC[C@H]1O[C@H](O[C@H]2O[C@H](CO)[C@@H](O[C@H]3O[C@H](CO)[C@@H](O[C@H]4O[C@H](CO)[C@@H](O[C@H]5O[C@H](CO)[C@@H](O[C@H]6O[C@H](CO)[C@@H](O[C@H]7O[C@H](CO)[C@@H](O)[C@H](O)[C@H]7O)[C@H](O)[C@H]6O)[C@H](O)[C@H]5O)[C@H](O)[C@H]4O)[C@H](O)[C@H]3O)[C@H](O)[C@H]2O)[C@H](O)[C@@H](O)[C@@H]1O [PV, alpha-maltopentaosyl trehalose] . Reported Glucose in degradation product by acetone-powdered rat small intestine enzyme?
(A) 73.4

(Q) Item under review: OC[C@H]1O[C@H](O[C@H]2O[C@H](CO)[C@@H](O[C@H]3O[C@H](CO)[C@@H](O)[C@H](O)[C@H]3O)[C@H](O)[C@H]2O)[C@H](O)[C@@H](O)[C@@H]1O [PI, alpha-glucosyl trehalose] . Reported Glucose in degradation product by acetone-powdered rat small intestine enzyme?
(A) 37.2

(Q) Item under review: OC[C@H]1O[C@H](O[C@H]2O[C@H](CO)[C@@H](O[C@H]3O[C@H](CO)[C@@H](O[C@H]4O[C@H](CO)[C@@H](O[C@H]5O[C@H](CO)[C@@H](O)[C@H](O)[C@H]5O)[C@H](O)[C@H]4O)[C@H](O)[C@H]3O)[C@H](O)[C@H]2O)[C@H](O)[C@@H](O)[C@@H]1O [PIII, alpha-maltotriosyl trehalose] . Reported Glucose in degradation product by acetone-powdered rat small intestine enzyme?
(A) 62.0
